The measured values listed here are drawn from PubChem BioAssay (NCI).

# System: RPMI-8226 leukemia
# Test description: NCI tumour cell line growth inhibition, 48 h; in the data active = GI50 below about 0.43 µM; inactive = the rest
Mark one answer only. Choices: 1 (yes) = active, 0 (no) = inactive

Lookup: In this assay, the call recorded for O=C(Nc1cccc(Nc2ncc(Br)c(NCCc3cnc[nH]3)n2)c1)N1CCCC1 was what?
Found: 0 (no)

Lookup: In this assay, the call recorded for COc1cc2c(c(OC)c1OC)-c1ccc(SC)c(=O)cc1[C@@H](NC1OC(CO)C(O)C(O)C1O)CC2 (stereo partly drawn) was what?
Found: 1 (yes)

Lookup: In this assay, the call recorded for C#CCOc1cccc(Nc2ncnc3c(NC(=O)CCl)cccc23)c1 was what?
Found: 0 (no)

Lookup: In this assay, the call recorded for CC(=O)Oc1ccccc1C(=O)/C=C/c1cccc([N+](=O)[O-])c1 was what?
Found: 0 (no)

Lookup: In this assay, the call recorded for COc1ccc(/C=N/NC(=O)Cn2c(-c3ccc(S(C)(=O)=O)cc3)nc3cc(Cl)ccc32)cc1 was what?
Found: 0 (no)

Lookup: In this assay, the call recorded for Cn1cc(-c2nonc2-c2cn(C)c3ccccc23)c2ccccc21 was what?
Found: 0 (no)

Lookup: In this assay, the call recorded for CC1=CC(=O)C(O)C2(C)C1CC(O)C13COC4(C)C(OC(=O)C41)C(O)C23 (stereo not drawn) was what?
Found: 0 (no)

Lookup: In this assay, the call recorded for CC1OC(O[C@H]2/C=C/C=C/C=C/C=C/C=C/C=C/C=C/[C@H](C)[C@@H](O)[C@@H](C)[C@H](C)OC(=O)CC(O)CC(O)CCC(O)C(O)CC(O)C[C@]3(O)C[C@H](O)C(C(=O)O)C(C2)O3)C(O)[C@H](N)C1O (stereo partly drawn) was what?
Found: 0 (no)
